target: T1, h-FAP-His (human, UniProt Q12884 26-760); assay: ELISA, human FAP-His coated
T1 construct: range 26-760; Bought recombinant protein with a His tag; also called human FAP-His protein; FAP recombinant protein with a His tag
T1 sequence (Q12884 26-760 limits assumed): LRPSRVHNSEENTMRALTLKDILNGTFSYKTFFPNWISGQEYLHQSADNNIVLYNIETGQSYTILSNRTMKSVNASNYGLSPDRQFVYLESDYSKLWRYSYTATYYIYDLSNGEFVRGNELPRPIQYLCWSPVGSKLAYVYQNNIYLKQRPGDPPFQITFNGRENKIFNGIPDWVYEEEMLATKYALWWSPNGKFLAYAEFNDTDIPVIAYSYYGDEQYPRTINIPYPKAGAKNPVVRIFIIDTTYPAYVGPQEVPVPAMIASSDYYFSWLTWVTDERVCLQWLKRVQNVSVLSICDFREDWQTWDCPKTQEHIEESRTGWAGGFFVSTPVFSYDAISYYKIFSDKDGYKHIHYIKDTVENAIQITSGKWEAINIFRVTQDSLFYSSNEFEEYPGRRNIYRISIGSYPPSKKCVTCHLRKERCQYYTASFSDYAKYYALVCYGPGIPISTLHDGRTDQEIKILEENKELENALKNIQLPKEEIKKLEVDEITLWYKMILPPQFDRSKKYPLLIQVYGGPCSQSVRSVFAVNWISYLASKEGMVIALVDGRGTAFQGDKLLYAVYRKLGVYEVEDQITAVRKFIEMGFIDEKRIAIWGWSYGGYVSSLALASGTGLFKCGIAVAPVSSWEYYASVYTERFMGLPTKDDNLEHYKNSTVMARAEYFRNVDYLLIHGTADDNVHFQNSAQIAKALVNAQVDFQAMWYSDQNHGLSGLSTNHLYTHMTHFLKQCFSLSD
reported.property: EC50 (µg/mL)
# value in µg/mL; strip the unit string

See these solved cases before continuing.
# binder, reported.property, measured.result
rows = [
    ("Ab14 (antibody, human IgG1, kappa, L234A L235A, V domains shown, Fully human, IgG1 / kappa; also called anti-FAP antibody Ab14; Ab114) VH: QVQLQQSGVEVKKPGASVTVSCRASGYSFADHFIHWVRQAPGQGFQWMGWINPNRGVTHHAQDFQGRVAMTRDMSTDTVYMELTSLRSDDTAVYYCARDASLTARPYYFYGFDVWGQGTLVTVSS VL: EIVLTQSPSSVSASVGDRVTITCRASQGISSWLAWYQQKPGKAPKLLIYAASSLQSGVPSRFSGSGSGTDFTLTISSLQPEDFATYYCQQANSFPLTFGGGTKVEIKR", "EC50", 417),
    ("Ab9 (antibody, human IgG1, kappa, L234A L235A, V domains shown, Fully human, IgG1 / kappa; also called anti-FAP antibody Ab9) VH: QMQLVQSGAEVKKPGASVTVSCRASGYSFADHFIHWVRQAPGQGFQWMGWINPNRGVTHHAQDFQGRVAMTRDMSTDTVYMELTSLRSDDTAVYYCARDESLTARPYYFYGFDVWGQGTLVTVSS VL: DIQMTQSPSSVSASVGDRVTITCRASQGISSWLAWYQQKPGKAPKLLIYAASSLQSGVPSRFSGSGSGTDFTLTISSLQPEDFATYYCQQANSFPPAFGQGTKVEIKR", "EC50", 101),
    ("Ab10 (antibody, human IgG1, kappa, L234A L235A, V domains shown, Fully human, IgG1 / kappa; also called anti-FAP antibody Ab10; Ab110) VH: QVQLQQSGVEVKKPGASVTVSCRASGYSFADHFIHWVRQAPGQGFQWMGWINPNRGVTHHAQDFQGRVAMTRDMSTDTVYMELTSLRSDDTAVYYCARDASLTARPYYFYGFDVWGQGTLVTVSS VL: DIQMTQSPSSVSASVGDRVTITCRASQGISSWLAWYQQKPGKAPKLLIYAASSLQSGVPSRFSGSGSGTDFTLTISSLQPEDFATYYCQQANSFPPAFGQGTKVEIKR", "EC50", 92),
]

Consider now this further binder.
Param item = Ab15 (antibody, human IgG1, kappa, L234A L235A, V domains shown, Fully human, IgG1 / kappa; also called anti-FAP antibody Ab15) VH: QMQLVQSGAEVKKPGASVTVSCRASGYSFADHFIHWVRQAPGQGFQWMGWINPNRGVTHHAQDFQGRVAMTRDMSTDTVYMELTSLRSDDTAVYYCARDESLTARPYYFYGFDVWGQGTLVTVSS VL: EIVLTQSPSSVSASVGDRVTITCRASQGISSWLAWYQQKPGKAPKSLIYAASSLQSGVPSRFSGSGSGTDFTLTISSLQPEDFATYYCQQANSFPPTFGGGTKVEIKR ; retrieve measured EC50.
321

These entries and their values trace back to patent US20250051467A1.
